Entries annotated with measured 6.25 uM % Lysed cells (1 h LDH)
# Tested on: SJSA-1 cells
# test summary: Cell lysis by peptidomimetic macrocycles (LDH release)
# Assay type: cell-based
# test settings: 6.25 uM, 1 h at 37C
Where a SMILES comes first, the peptide text is derived from it. Bridges are numbered along the chain shown (N, C = ends). [ ]: non-standard residue; d: D form. R8 = C=CCCCCCC[C@@](C)(N)C(=O)O; hLeu = CC(C)CC[C@H](N)C(=O)O; S5 = C=CCCC[C@](C)(N)C(=O)O; Nle = CCCC[C@H](N)C(=O)O
Give the number; % is assumed, so skip it.

| compound | unit symbol | 6.25 uM % Lysed cells (1 h LDH) |
| --- | --- | --- |
| CCCC[C@H](NC(=O)[C@H](C)NC(=O)[C@H](CO)NC(=O)[C@]1(C)CCCC=CCCCCCC[C@@](C)(NC(=O)[C@H](Cc2ccccc2)NC(=O)[C@@H](NC(=O)[C@H](CC(C)C)NC(C)=O)[C@@H](C)O)C(=O)N[C@@H](C)C(=O)N[C@@H](Cc2ccc(O)cc2)C(=O)N[C@@H](Cc2c[nH]c3ccccc23)C(=O)N[C@@H](C)C(=O)N[C@@H](CCC(N)=O)C(=O)N[C@@H](CC(C)C)C(=O)N1)C(N)=O [compound 3] (Ac-LTF[R8]AYWAQL[S5]SA[Nle]-NH2; staple 4-11) | % | 1 |

We next turn to a different compound, shown below.
Given CC(=O)N[C@@H](CC(C)C)C(=O)N[C@H](C(=O)N[C@@H](Cc1ccccc1)C(=O)N[C@]1(C)CCCCCC/C=C\CCC[C@@](C)(C(=O)N[C@@H](CO)C(=O)N[C@@H](C)C(=O)N[C@@H](C)C(N)=O)NC(=O)[C@H](CCC(C)C)NC(=O)[C@H](CCC(N)=O)NC(=O)[C@H](C)NC(=O)[C@H](Cc2c[nH]c3ccccc23)NC(=O)[C@H](Cc2ccc(O)cc2)NC(=O)[C@H](C)NC1=O)[C@@H](C)O [compound 114] (Ac-LTF[R8]AYWAQ[hLeu][S5]SAA-NH2; staple (Z) 4-11) , state its recorded 6.25 uM % Lysed cells (1 h LDH). 3

---

# tested on: MDMX (Homo sapiens, UniProt O15151)
# test summary: Competitive fluorescence polarization assay for MDMX
# Format: binding
# test settings: competitive FP assay, read-out: Ki (MDMX)
Where a SMILES comes first, the peptide text is derived from it. Bridges are numbered along the chain shown (N, C = ends). [ ]: non-standard residue; d: D form. Trp(6-Cl) = N[C@@H](Cc1c[nH]c2cc(Cl)ccc12)C(=O)O; R8 = C=CCCCCCC[C@@](C)(N)C(=O)O; Cba = N[C@@H](CC1CCC1)C(=O)O; S5 = C=CCCC[C@](C)(N)C(=O)O
Entries annotated with measured Ki

| molecule | experimental value |
| --- | --- |
| CC[C@H](C)[C@H](NC(=O)[C@H](C)NC(=O)[C@H](C)NC(=O)[C@]1(C)CCCC=CCCCCCC[C@@](C)(NC(=O)[C@H](Cc2ccccc2)NC(=O)[C@@H](NC(=O)[C@H](CC(C)C)NC(C)=O)[C@@H](C)O)C(=O)N[C@@H](C)C(=O)N[C@@H](Cc2ccc(O)cc2)C(=O)N[C@@H](Cc2c[nH]c3ccccc23)C(=O)N[C@@H](C)C(=O)N[C@@H](C)C(=O)N[C@@H](CC(C)C)C(=O)N1)C(=O)N[C@H](C)C(N)=O (single isomer, unassigned) | 10 to 100 nM |

We next turn to a different molecule, shown below.
Given CC[C@H](C)[C@H](NC(=O)[C@H](C)NC(=O)[C@H](C)NC(=O)[C@]1(C)CCCC=CCCCCCC[C@@](C)(NC(=O)[C@H](Cc2ccccc2)NC(=O)[C@@H](NC(=O)[C@H](CC(C)C)NC(C)=O)[C@@H](C)O)C(=O)N[C@@H](C)C(=O)N[C@@H](Cc2ccc(O)cc2)C(=O)N[C@@H](Cc2c[nH]c3cc(Cl)ccc23)C(=O)N[C@@H](C)C(=O)N[C@@H](CCC(N)=O)C(=O)N[C@@H](CC2CCC2)C(=O)N1)C(=O)N[C@H](C)C(N)=O [compound 266] (Ac-LTF[R8]AY[Trp(6-Cl)]AQ[Cba][S5]AAI[dA]-NH2; staple 4-11) , state its recorded Ki. 10 to 100 nM

---

# tested on: UniProt O15151
# Sequence (O15151 1-125): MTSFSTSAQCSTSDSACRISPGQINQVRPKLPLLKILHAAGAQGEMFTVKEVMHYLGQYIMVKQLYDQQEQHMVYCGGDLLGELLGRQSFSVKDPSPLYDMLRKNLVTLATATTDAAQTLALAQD
# test summary: Competitive fluorescence polarization assay for MDMX
# Type: binding
# test settings: competitive FP assay, read-out: Ki (MDMX)
pKi: −log10 of the molar value. Where a SMILES comes first, the peptide text is derived from it. Bridges are numbered along the chain shown (N, C = ends). [ ]: non-standard residue; d: D form. R8 = C=CCCCCCC[C@@](C)(N)C(=O)O; S5 = C=CCCC[C@](C)(N)C(=O)O; Aib = CC(C)(N)C(=O)O
Entries annotated with measured pKi

| molecule | pKi |
| --- | --- |
| CC(=O)N[C@@H](CC(C)C)C(=O)N[C@H](C(=O)N[C@@H](Cc1ccccc1)C(=O)N[C@]1(C)CCCCCCC=CCCC[C@@](C)(C(=O)N[C@@H](C)C(=O)N[C@@H](C)C(=O)N[C@@H](C)C(=O)N[C@@H](C)C(=O)N[C@@H](C)C(=O)N[C@H](C)C(N)=O)NC(=O)[C@H](CC(C)C)NC(=O)C(C)(C)NC(=O)[C@H](C)NC(=O)[C@H](Cc2c[nH]c3ccccc23)NC(=O)[C@H](Cc2ccc(O)cc2)NC(=O)[C@H](CCC(=O)O)NC1=O)[C@@H](C)O [compound 609] (Ac-LTF[R8]EYWA[Aib]L[S5]AAAAA[dA]-NH2; staple 4-11) | 7.00 to 8.00 |
| C=CCCCCCC[C@@](C)(NC(=O)[C@H](Cc1ccccc1)NC(=O)[C@@H](NC(=O)[C@H](CC(C)C)NC(C)=O)[C@@H](C)O)C(=O)N[C@@H](C)C(=O)N[C@@H](Cc1ccc(O)cc1)C(=O)N[C@@H](Cc1c[nH]c2ccccc12)C(=O)N[C@@H](C)C(=O)N[C@@H](CCC(N)=O)C(=O)N[C@@H](CC(C)C)C(=O)N[C@@](C)(CCCC=C)C(=O)N[C@@H](C)C(=O)N[C@@H](C)C(=O)N[C@@H](CCCC)C(=O)N[C@@H](C)C(N)=O [compound 411] | < 6.00 |
| CC[C@H](C)[C@H](NC(=O)[C@H](C)NC(=O)[C@H](C)NC(=O)[C@]1(C)CCCC=CCCCCCC[C@@](C)(NC(=O)[C@H](Cc2ccccc2)NC(=O)[C@@H](NC(=O)[C@H](CC(C)C)NC(C)=O)[C@@H](C)O)C(=O)N[C@@H](C)C(=O)N[C@@H](Cc2ccc(O)cc2)C(=O)N[C@@H](Cc2c[nH]c3ccccc23)C(=O)N[C@@H](C)C(=O)N[C@@H](CCC(N)=O)C(=O)N[C@@H](CC(C)C)C(=O)N1)C(=O)N[C@@H](C)C(N)=O (single isomer, unassigned) [compound 65] | 7.00 to 8.00 |
| CC(=O)N[C@@H](CC(C)C)C(=O)N[C@H](C(=O)N[C@@H](Cc1ccccc1)C(=O)N[C@]1(C)CCCCCCC=CCCC[C@@](C)(C(=O)N[C@@H](C)C(=O)N[C@@H](C)C(=O)N[C@@H](CC(C)C)C(=O)N[C@H](C)C(N)=O)NC(=O)[C@H](CC(C)C)NC(=O)[C@H](CCC(N)=O)NC(=O)[C@H](C)NC(=O)[C@H](Cc2c[nH]c3ccccc23)NC(=O)[C@H](Cc2ccc(O)cc2)NC(=O)[C@H](C)NC1=O)[C@@H](C)O (single isomer, unassigned) [compound 215] | 7.00 to 8.00 |

We next turn to a different molecule, shown below.
Given CC(=O)N[C@@H](CC(C)C)C(=O)N[C@H](C(=O)N[C@@H](Cc1ccccc1)C(=O)N[C@]1(C)CCCCCCC=CCCC[C@@](C)(C(=O)N[C@@H](CO)C(=O)N[C@H](C(=O)N[C@@H](CO)C(N)=O)C(C)C)NC(=O)[C@H](CC(C)C)NC(=O)[C@H](CCC(N)=O)NC(=O)[C@H](C)NC(=O)[C@H](Cc2c[nH]c3ccccc23)NC(=O)[C@H](Cc2ccc(O)cc2)NC(=O)[C@H](C(C)C)NC1=O)[C@@H](C)O (single isomer, unassigned) [compound 142] , state its recorded pKi. 7.00 to 8.00
